- Tested on: MDA-MB-468 breast
- Assay procedure: NCI-60 one-dose screen, 48 h (100 = growth as untreated, 0 = no growth, -100 = all killed)
- Experimental conditions: 10 µM unless noted
The panel holds about 83,000 compounds, 20% with a hit somewhere; the sample as a whole holds those more often.
Entries and their measured growth follow.
Just the number in %, nothing appended.

Worked set:
Compound	Uom	growth
NNc1ncnc2nc[nH]c12	%	36.8
Cc1cc(NC(=O)NC(=O)c2ccccc2N(C)C)ccc1Oc1ncc(Br)cn1	%	-2.54
CCOc1ccc(Br)cc1/C=N\N=C\c1cc(Br)ccc1OCC	%	128
N#C/C(=C\c1ccc(-c2cccc(C(F)(F)F)c2)o1)c1nc(-c2ccco2)cs1	%	-37
CCCOc1ccc(/C=N/Nc2cc(C)nc3ccc(Br)cc23)cc1	%	96.1
CCCCCCCCN(CCO)CCCCCCCC	%	98.7
Oc1cccc2ccc(-c3nnc(SCc4ccc(O)c5ncccc45)o3)nc12	%	0.74
COC(=O)c1cc(O)c2cc3c(cc2c1-c1cc(OC)c(OC)c(OC)c1)OCO3	%	-8.52
O=C(O)c1ccc(-n2cc(/C=N/Nc3ccc(F)cc3)c(-c3cccc(C(F)(F)F)c3)n2)cc1	%	90.8
O=c1[nH]c(-c2ccccc2)nc(CN2CCCCC2)c1O	%	111

Task: Tell me reported growth for "COc1ccc(/C=C(\c2cc(OC)c(OC)c(OC)c2)c2nnc(-c3cccs3)o2)cc1" , tested with MDA-MB-468 breast.
Result: 77.7

Task: Another: CCC(C)C1NC(=O)C(CC(C)C)NC(=O)C(C)NC(=O)C(C(C)C)NC(=O)C(CCCCN)NC(=O)C(CC(C)C)NC(=O)C(C(C)C)NC(=O)[C@H](C)NC(=O)C(C(C)CC)NC(=O)C(CCCN=C(N)N)NC(=O)C(CCCCN)NC(=O)C(CCCN=C(N)N)NC(=O)C(CCCCN)NC(=O)C([C@H](C)CC)NC(=O)C(CCCCN)NC1=O (some centres undefined)
Result: -4.06

Task: What about O=C1NCC(c2cc3ccccc3[nH]c2=O)Nc2ccccc21 (centres undefined) ?
Result: 97.5

Task: # iterate: "O=C(NNc1nc2cc(F)ccc2n2cncc12)c1cnccn1"
Result: 31.7

Task: Now consider "COc1ccc(-c2c(-c3nc4ccc(N5CCOCC5)cc4[nH]3)[nH]c(C)c2C(C)=O)cc1" .
Result: 23.1

Task: Now this one: "CS(=O)(=O)OCC(COS(C)(=O)=O)C(c1ccccc1)c1ccccc1"
Result: 102

Task: Now consider "NC(N)=Nc1nc2ccccc2o1" and answer again.
Result: 106

Task: What do we get for "COC(=O)/C=C1\SC(=Nc2cccc(OC)c2)N(CCc2c[nH]c3ccccc23)C1=O" ?
Result: 64

Task: And the next one, CCCCC(CCCCCC(CCCC)C1NC(C)Cc2cc(OC)c(OC)cc21)C1NC(C)Cc2cc(OC)c(OC)cc21 (centres undefined) ?
Result: -84.7

----------
- System: MDA-MB-468 breast
- Assay procedure: NCI-60 one-dose screen, 48 h
- Experimental conditions: 10 µM unless noted
About 83,000 compounds went through this panel and 20% of them were active in at least one assay; those are over-represented in the sample as a whole. The source made the active and inactive calls. How the source made its calls: active means growth percent below 10; inactive means the rest.
Output constraint: value belongs to active, inactive

Task: Short answer needed: outcome of this test for "O=C1NC(=O)/C(=C/c2ccc(OCc3cc4ccccc4nc3Cl)cc2)S1" ?
Result: inactive

Task: Let us now turn to "Cc1cc2nc3c4cc(C=O)ccc4n(CCN(C)C)c3nc2cc1C"
Result: active

Task: Record: "CCCCCCN1C(=O)CN=C1Nc1ccc2cc3ccc(NC4=NCC(=O)N4CCCCCC)cc3nc2c1"
Result: active
